- Test system: mice falling off the inverted screen
- Test summary: Mouse Activity and Screen Test Procedure (MAST): screen test (ST)
- Type: in vivo, Swiss-Webster male mice
- Condition context: 30 mg/kg intraperitoneally, one hour postinjection; percent of mice falling off the screen
Threshold 60%: Screen Test Failure strictly smaller gives y, otherwise n.

- Molecule: "COc1ccc2c(c1)CC(Nc1ncnc3c1ncn3[C@@H]1O[C@H](CO)[C@@H](O)[C@H]1O)CO2 (stereo partly shown)"
  Assigned class: "n"
- Molecule: "OC[C@H]1O[C@@H](n2cnc3c(NC4COc5ccccc5C4)ncnc32)[C@H](O)[C@@H]1O (stereo partly shown) [Example 4, N^6-[3-Chromanylamino]adenosine]"
  Assigned class: "n"
- Molecule: "Cc1cc2c(cc1C)OCC(Nc1ncnc3c1ncn3[C@@H]1O[C@H](CO)[C@@H](O)[C@H]1O)C2 (stereo partly shown)"
  Assigned class: "y"
- Molecule: "OC[C@H]1O[C@@H](n2cnc3c(NC4CCSc5ccccc54)ncnc32)[C@H](O)[C@@H]1O (stereo partly shown)"
  Assigned class: "y"
- Molecule: "CC(C)(C)c1ccc2c(c1)OCC(Nc1ncnc3c1ncn3[C@@H]1O[C@H](CO)[C@@H](O)[C@H]1O)C2 (stereo partly shown)"
  Assigned class: "y"
- Molecule: "CC1Oc2ccccc2CC1Nc1ncnc2c1ncn2C1OC(CO)C(O)C1O (stereo not shown)"
  Assigned class: "n"
- Molecule: "OC[C@H]1O[C@@H](n2cnc3c(NC4CCOc5ccccc54)ncnc32)[C@H](O)[C@@H]1O (stereo partly shown)"
  Assigned class: "y"

* * *

- Tested on: mice falling off the inverted screen
- Test summary: Mouse Activity and Screen Test Procedure (MAST): screen test (ST)
- Assay type: in vivo, Swiss-Webster male mice
- Condition context: 100 mg/kg intraperitoneally, one hour postinjection; percent of mice falling off the screen

- Compound: "OC[C@H]1O[C@@H](n2cnc3c(NC4COc5ccccc5C4)ncnc32)[C@H](O)[C@@H]1O (stereo partly drawn) [Example 4, N^6-[3-Chromanylamino]adenosine]"
  Unit abbrev: "%"
  Screen Test Failure: 88
- Compound: "Cc1cc2c(cc1C)OCC(Nc1ncnc3c1ncn3[C@@H]1O[C@H](CO)[C@@H](O)[C@H]1O)C2 (stereo partly drawn)"
  Unit abbrev: "%"
  Screen Test Failure: 77
- Compound: "COc1ccc2c(c1)CC(Nc1ncnc3c1ncn3[C@@H]1O[C@H](CO)[C@@H](O)[C@H]1O)CO2 (stereo partly drawn)"
  Unit abbrev: "%"
  Screen Test Failure: 99

* * *

- System: mice falling off the inverted screen
- Test summary: Mouse Activity and Screen Test Procedure (MAST): screen test (ST)
- Type: in vivo, Swiss-Webster male mice
- Condition context: 1 mg/kg intraperitoneally, one hour postinjection; percent of mice falling off the screen

- Molecule: "COc1ccc2c(c1)CC(Nc1ncnc3c1ncn3[C@@H]1O[C@H](CO)[C@@H](O)[C@H]1O)CO2 (stereo partly shown)"
  Unit abbrev: "%"
  Screen Test Failure: 0
- Molecule: "OC[C@H]1O[C@@H](n2cnc3c(NC4COc5ccccc5C4)ncnc32)[C@H](O)[C@@H]1O (stereo partly shown) [Example 4, N^6-[3-Chromanylamino]adenosine]"
  Unit abbrev: "%"
  Screen Test Failure: 22
- Molecule: "Cc1cc2c(cc1C)OCC(Nc1ncnc3c1ncn3[C@@H]1O[C@H](CO)[C@@H](O)[C@H]1O)C2 (stereo partly shown)"
  Unit abbrev: "%"
  Screen Test Failure: 0
- Molecule: "OC[C@H]1O[C@@H](n2cnc3c(NC4COc5c(Cl)cccc5C4)ncnc32)[C@H](O)[C@@H]1O (stereo partly shown)"
  Unit abbrev: "%"
  Screen Test Failure: 0

* * *

- System: mice falling off the inverted screen
- Test summary: Mouse Activity and Screen Test Procedure (MAST): screen test (ST)
- Type: in vivo, Swiss-Webster male mice
- Condition context: 1 mg/kg intraperitoneally, one hour postinjection; percent of mice falling off the screen

- Compound: "COc1ccc2c(c1)OCC(Nc1ncnc3c1ncn3[C@@H]1O[C@H](CO)[C@@H](O)[C@H]1O)C2 (stereo partly drawn) [Example 3]"
  Unit abbrev: "%"
  Screen Test Failure: 0
- Compound: "CC1Oc2ccccc2CC1Nc1ncnc2c1ncn2C1OC(CO)C(O)C1O (stereo not drawn) [Example 7]"
  Unit abbrev: "%"
  Screen Test Failure: 0
- Compound: "OC[C@H]1O[C@@H](n2cnc3c(NC4CSc5ccccc5C4)ncnc32)[C@H](O)[C@@H]1O (stereo partly drawn) [Example 2]"
  Unit abbrev: "%"
  Screen Test Failure: 11
- Compound: "Cc1ccc2c(c1C)OCC(Nc1ncnc3c1ncn3[C@@H]1O[C@H](CO)[C@@H](O)[C@H]1O)C2 (stereo partly drawn) [Example 10]"
  Unit abbrev: "%"
  Screen Test Failure: 0
- Compound: "Cc1ccc2c(c1C)OC(C)C(Nc1ncnc3c1ncn3[C@@H]1O[C@H](CO)[C@@H](O)[C@H]1O)C2 (stereo partly drawn) [Example 11]"
  Unit abbrev: "%"
  Screen Test Failure: 0
- Compound: "C[C@H]1Oc2ccccc2C[C@@H]1Nc1ncnc2c1ncn2[C@@H]1O[C@H](CO)[C@@H](O)[C@H]1O (relative stereo) [Example 8]"
  Unit abbrev: "%"
  Screen Test Failure: 0

* * *

- Tested on: adenosine A2 receptor (Rattus norvegicus)
- Sequence (P30543 whole entry): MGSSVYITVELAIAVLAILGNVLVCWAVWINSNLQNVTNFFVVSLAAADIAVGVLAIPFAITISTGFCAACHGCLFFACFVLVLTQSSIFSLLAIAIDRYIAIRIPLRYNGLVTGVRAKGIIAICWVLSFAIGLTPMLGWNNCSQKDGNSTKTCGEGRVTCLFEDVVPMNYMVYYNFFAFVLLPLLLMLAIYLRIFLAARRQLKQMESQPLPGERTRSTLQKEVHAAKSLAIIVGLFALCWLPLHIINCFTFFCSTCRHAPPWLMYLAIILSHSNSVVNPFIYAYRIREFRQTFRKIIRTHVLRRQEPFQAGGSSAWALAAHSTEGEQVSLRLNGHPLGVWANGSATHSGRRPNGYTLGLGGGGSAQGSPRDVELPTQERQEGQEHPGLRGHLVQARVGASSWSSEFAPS
Let's look at some molecules and their measured log10 IC50.
Measured attribute: log10 IC50 (log10 of the value in nM)

- Molecule: "COc1cc(OC)c2c(c1)OC(C)(C)CC2Nc1ncnc2c1ncn2[C@@H]1O[C@H](CO)[C@@H](O)[C@H]1O (stereo partly shown) [Example 14]"
  Measured attribute: "log10 IC50"
  Reported value: 4.58
- Molecule: "OC[C@H]1O[C@@H](n2cnc3c(NC4CCOc5ccccc54)ncnc32)[C@H](O)[C@@H]1O (stereo partly shown) [Example 1]"
  Measured attribute: "log10 IC50"
  Reported value: 2.78
- Molecule: "OC[C@H]1O[C@@H](n2cnc3c(NC4COc5c(Cl)cccc5C4)ncnc32)[C@H](O)[C@@H]1O (stereo partly shown) [Example 5]"
  Measured attribute: "log10 IC50"
  Reported value: 2.32
- Molecule: "CC1Oc2ccccc2CC1Nc1ncnc2c1ncn2C1OC(CO)C(O)C1O (stereo not shown) [Example 7]"
  Measured attribute: "log10 IC50"
  Reported value: 3.26
- Molecule: "COc1ccc2c(c1)CC(Nc1ncnc3c1ncn3[C@@H]1O[C@H](CO)[C@@H](O)[C@H]1O)CO2 (stereo partly shown) [Example 6]"
  Measured attribute: "log10 IC50"
  Reported value: 3.04
- Molecule: "OC[C@H]1O[C@@H](n2cnc3c(NC4CSc5ccccc5C4)ncnc32)[C@H](O)[C@@H]1O (stereo partly shown) [Example 2]"
  Measured attribute: "log10 IC50"
  Reported value: 2.53
- Molecule: "COc1ccc2c(c1)OCC(Nc1ncnc3c1ncn3[C@@H]1O[C@H](CO)[C@@H](O)[C@H]1O)C2 (stereo partly shown) [Example 3]"
  Measured attribute: "log10 IC50"
  Reported value: 3.13
- Molecule: "OC[C@H]1O[C@@H](n2cnc3c(NC4COc5ccccc5C4)ncnc32)[C@H](O)[C@@H]1O (stereo partly shown) [Example 4, N^6-[3-Chromanylamino]adenosine]"
  Measured attribute: "log10 IC50"
  Reported value: 2.79
- Molecule: "Cc1ccc(C(C)C)c2c1CC(Nc1ncnc3c1ncn3[C@@H]1O[C@H](CO)[C@@H](O)[C@H]1O)CO2 (stereo partly shown) [Example 12]"
  Measured attribute: "log10 IC50"
  Reported value: 3.19
- Molecule: "Cc1ccc2c(c1C)OC(C)C(Nc1ncnc3c1ncn3[C@@H]1O[C@H](CO)[C@@H](O)[C@H]1O)C2 (stereo partly shown) [Example 11]"
  Measured attribute: "log10 IC50"
  Reported value: 2.56

* * *

- Tested on: adenosine A1 receptor (Rattus norvegicus, UniProt P25099)
- Construct: Whole brain minus cerebellum and brainstem from male Long Evans rats (150-200 g) was homogenized
- Sequence (P25099 whole entry): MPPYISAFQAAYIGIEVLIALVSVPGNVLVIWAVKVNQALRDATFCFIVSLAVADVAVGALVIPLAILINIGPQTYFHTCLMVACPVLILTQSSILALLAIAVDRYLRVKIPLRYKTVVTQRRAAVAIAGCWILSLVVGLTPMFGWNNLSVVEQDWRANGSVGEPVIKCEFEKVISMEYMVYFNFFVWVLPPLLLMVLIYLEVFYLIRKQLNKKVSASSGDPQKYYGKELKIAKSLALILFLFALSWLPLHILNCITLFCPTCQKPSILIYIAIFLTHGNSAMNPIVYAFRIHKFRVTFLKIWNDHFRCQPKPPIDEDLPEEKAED
- Test summary: Adenosine Receptor Binding - A1 Receptor Affinity (RBA 1), [3H]-CHA displacement
- Condition context: rat whole brain membranes, 1.0 nM [3H]-CHA, one hour at 25°C
pIC50: −log10 of the molar value.
Assign class by pIC50: not lower than 7 means condition met; lower than 7 means condition not met.

- Compound: "OC[C@H]1O[C@@H](n2cnc3c(NC4CSc5ccccc5C4)ncnc32)[C@H](O)[C@@H]1O (stereo partly drawn)"
  Tested on: "adenosine A1 receptor (Rattus norvegicus, UniProt P25099)"
  Assigned class: "condition met"
- Compound: "O=S1(=O)CCC(Nc2ncnc3c2ncn3[C@@H]2O[C@H](CO)[C@@H](O)[C@H]2O)c2ccccc21 (stereo partly drawn)"
  Tested on: "adenosine A1 receptor (Rattus norvegicus, UniProt P25099)"
  Assigned class: "condition not met"
- Compound: "COc1ccc2c(c1)OCC(Nc1ncnc3c1ncn3[C@@H]1O[C@H](CO)[C@@H](O)[C@H]1O)C2 (stereo partly drawn)"
  Tested on: "adenosine A1 receptor (Rattus norvegicus, UniProt P25099)"
  Assigned class: "condition met"
- Compound: "C[C@H]1Oc2ccccc2C[C@@H]1Nc1ncnc2c1ncn2[C@@H]1O[C@H](CO)[C@@H](O)[C@H]1O (relative stereo)"
  Tested on: "adenosine A1 receptor (Rattus norvegicus, UniProt P25099)"
  Assigned class: "condition met"
- Compound: "Cc1ccc(C(C)C)c2c1CC(Nc1ncnc3c1ncn3[C@@H]1O[C@H](CO)[C@@H](O)[C@H]1O)CO2 (stereo partly drawn)"
  Tested on: "adenosine A1 receptor (Rattus norvegicus, UniProt P25099)"
  Assigned class: "condition not met"
- Compound: "OC[C@H]1O[C@@H](n2cnc3c(NC4CCSc5ccccc54)ncnc32)[C@H](O)[C@@H]1O (stereo partly drawn)"
  Tested on: "adenosine A1 receptor (Rattus norvegicus, UniProt P25099)"
  Assigned class: "condition met"
- Compound: "OC[C@H]1O[C@@H](n2cnc3c(NC4COc5c(Cl)cccc5C4)ncnc32)[C@H](O)[C@@H]1O (stereo partly drawn)"
  Tested on: "adenosine A1 receptor (Rattus norvegicus, UniProt P25099)"
  Assigned class: "condition met"
